Target: human GAL9 of the human PBMC cultures (human)
Assay: cell-based or functional assay
measured.metric: INF-γ 72 hr, Fold change, as % (%)
Kindly answer with a numeric value in %, unit omitted.

Which INF-γ 72 hr, Fold change, as % reading was recorded for the binder P9-57 (antibody, IgG1, V domains shown, Tested as bivalent monospecific native human full-length IgG1; also called ABS clone P9-57) VH: EVQLVESGGGLVQPGGSLRLSCAASGFTFSSYYIHWVRQAPGKGLEWVATIYPSGGYTYYADSVKGRFTISADTSKNTAYLQMNSLRAEDTAVYYCARYSYPGVLDYWGQGTLVTVSS VL: DIQMTQSPSSLSASVGDRVTITCRASQSVSSAVAWYQQKPGKAPKLLIYSASSLYSGVPSRFSGSRSGTDFTLTISSLQPEDFATYYCQQSSSFLWTFGQGTKVEIKR ?
83.4
